# System: IFNγ production
# measurement.description: IFNγ production in IL-12 and IL-18-induced BMMNC, ELISA
# Format: cell-based
# experimental.context: Homo sapiens, 24 hours, read-out: IC50 for block of IFNγ production
pIC50: −log10 of the molar value.
experimental.endpoint: pIC50

| record.smiles | target.under.test | experimental.value |
| --- | --- | --- |
| COc1cc2c(cc1C(=O)N1C[C@H](C)N(Cc3ccc(F)cc3)C[C@H]1C)c(C(=O)C(=O)N(C)C)cn2C | IFNγ production | > 7.30 |

----------
# System: LPS-induced TNFα secretion in whole human blood
# measurement.description: cell based assay, LPS-induced TNFα secretion in whole human blood
# experimental.context: read-out: IC50 for inhibition of LPS-induced TNFα secretion
pIC50: −log10 of the molar value.
experimental.endpoint: pIC50

| record.smiles | experimental.endpoint | experimental.value |
| --- | --- | --- |
| COc1cc2c(cc1C(=O)N1C[C@H](C)N(Cc3ccc(F)cc3)C[C@H]1C)c(C(=O)C(=O)N(C)C)cn2C | pIC50 | 5.89 |
